Values from the supplement of paper PMC11908140

B1: library; numbered along this chain (parent)
chain: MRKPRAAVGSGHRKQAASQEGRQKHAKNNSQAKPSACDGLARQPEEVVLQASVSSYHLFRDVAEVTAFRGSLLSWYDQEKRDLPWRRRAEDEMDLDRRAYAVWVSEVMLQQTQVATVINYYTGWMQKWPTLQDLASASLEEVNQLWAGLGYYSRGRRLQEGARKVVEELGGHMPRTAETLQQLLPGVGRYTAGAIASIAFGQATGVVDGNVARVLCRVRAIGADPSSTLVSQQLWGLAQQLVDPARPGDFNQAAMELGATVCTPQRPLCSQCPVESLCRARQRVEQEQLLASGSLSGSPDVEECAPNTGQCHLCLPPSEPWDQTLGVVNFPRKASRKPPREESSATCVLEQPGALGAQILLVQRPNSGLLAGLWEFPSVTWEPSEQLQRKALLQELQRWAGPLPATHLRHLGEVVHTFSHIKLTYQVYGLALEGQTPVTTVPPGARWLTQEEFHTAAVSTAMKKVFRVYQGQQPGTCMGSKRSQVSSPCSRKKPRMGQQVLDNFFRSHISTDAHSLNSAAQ

variants of: B1; test: 8OG:A repair function score (normalized; synonymous = 0, nonsense = -1) (normalized log-likelihood score); higher = more repair activity (WT-like); conditions: with 8OG:A DNA repair reporter (GFP) in HEK-293 MUTYH KO cells;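 note: cells sorted at 72 h after reporter transfection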
measurement-label: 8OG:A repair function score
Give bare numbers.

residue-change: Q473G
recorded-value: 0.0222
--
residue-change: D300V
recorded-value: -0.0916
--
residue-change: R398M
recorded-value: 0.0969
--
residue-change: P437R
recorded-value: -0.174
--
residue-change: I195M
recorded-value: -0.23
--
residue-change: R246I
recorded-value: -0.836

For each listed entry, give its 8OG:A repair function score.
1. L408S
2. Q110A
3. Q363P
4. G171R
5. F466S
6. R156M

1: -0.483; 2: -2.51; 3: -0.208; 4: -0.577; 5: -0.715; 6: -0.207

Items follow; give 8OG:A repair function score for each.
1. R281Y
2. Y76M
3. G186R

1: -0.0264; 2: -1.2; 3: -1.16
